Consider the following binders; for each one, report its binding signal.
Biological target: T1, UNK ZnF1-3 (human, UniProt Q9C0B0 31-174)
T1 sequence: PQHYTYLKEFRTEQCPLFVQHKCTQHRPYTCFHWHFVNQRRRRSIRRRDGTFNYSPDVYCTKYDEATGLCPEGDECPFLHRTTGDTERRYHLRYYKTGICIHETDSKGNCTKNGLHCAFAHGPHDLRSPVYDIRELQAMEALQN
Experiment: nsRBNS (natural sequence RNA bind-n-seq); RBNS binding buffer (assumed for nsRBNS): 25 mM Tris pH 7.5, 150 mM KCl, 3 mM MgCl2, 0.01% Triton X-100, 500 ug/ml BSA, 20 U/ml SUPERase-In, 4 C; UNK is unkempt and MSI1 is Musashi-1; names of the RNAs are library labels; protein concentration not given here; high values mean tight binding
Over roughly 24,000 sequences, “enrichment r” has its median near 0.99; the highest 2% begin near 3.7. Many of the other results were omitted from the sample, so the highest values are more common in it than they were.
Give bare numbers, in enrichment R.

193332725_193333477_540_CDS_ENSG00000198836_ENST00000392438|human|control|control (ssRNA) RNA: GGGAGUUCUACAGUCCGACGAUCCCACUGAUCAAAAGUCUUUUUGGCUGUGUAGCCACCCCCAACAGCCGAUCCUAGUAUGAGAUAGCGAAGUUUUAAGAGUCUCGUAGCUAAUCUUGCUGGCCAAAAAUUCCUGCGAGGCUGCAACAGAGGAUUGAGCAUCA : 1.11
chr2:9570881:9570882:+_ENSG00000119203_ENST00000238112|hu_mus|hu_hu_hu_mus_False|28_58 (ssRNA) RNA: GGGAGUUCUACAGUCCGACGAUCACUUGUCUUCUGAAGGAACCAGGGCAGGGCUCCACAGUGAUCCAAAUGGAAAUGACUAAUUAACAGAAGGUCGAUCUCAGCUGGGUCAAUUAAGUCAAUGUAAGGAAGGGCAUCCAUUCCCAACAGAGGAUUGAGCAUCA : 1.47
chr1:220276048:220276049:+_ENSG00000067704_ENST00000302637|hu_hu|hu_hu_hu_mus_True|8_58 (ssRNA) RNA: GGGAGUUCUACAGUCCGACGAUCGCAAAUUGCCUGGUUGGCGGGAAUUGUCCAAGGCUGGGUGGUCCAAACUAAAAUACUAACAGGGGAUGAGGCAUCUGUAAGAGACUCCAACUUCGGAGGAGGUUUUAAGAGAGGGAAUCUCAACAGAGGAUUGAGCAUCA : 3.69
chr5:141234466:141234467:-_ENSMUSG00000000149_ENSMUST00000000153|mus_mus|motif|central (ssRNA) RNA: GGGAGUUCUACAGUCCGACGAUCAGGACAAUAGUCAAGGGUAACAGUGAAAUUAAAAUUAAAAAAAAAAAUACAAACGCCGGAGGUCUGGGAGAAACCUGACUACAAUCUACGUGGAGAAACUUGUAAAUGACUCCAGCCUGGCAACAGAGGAUUGAGCAUCA : 11.3
72182037_72182157_980_3pUTR_ENSG00000148730_ENST00000373218|human|control|control (ssRNA) RNA: GGGAGUUCUACAGUCCGACGAUCCCAGAGGAAAGAAAGGAAGUGGACCUCAAAACAGUGUCACAGGGUAACGCUACCAGAGUUGCACAAGCUGUGCUCUGUCCCGAGGGACGAAUACCUCAAGGUAAAAGGGAAAGCAGCUCUCAACAGAGGAUUGAGCAUCA : 0.893
chr10:36858571:36858572:-_ENSMUSG00000069662_ENSMUST00000092584|mus_mus|FALSE|FALSE (ssRNA) RNA: GGGAGUUCUACAGUCCGACGAUCAUAAAAAAUUUUUAGUCGAAGAGAUCAAAAAAGCAGCAGCGCAGGAAGGAGGGAAAAAGGUGGAAAAGUCGAGCACAAAAAAGGAGCCCAAGUGUAGUUUUUUUAAAAAAAGAAGUAAUACAACAGAGGAUUGAGCAUCA : 11.7

Items follow; give binding signal for each.
1. chr10:36858571:36858572:-_ENSMUSG00000069662_ENSMUST00000092584|mus_hu|FALSE|FALSE (ssRNA) RNA: GGGAGUUCUACAGUCCGACGAUCAUAAAAAAAUUUUAGUCGAAGAGAUCAAAAAGCAGCAGCACAGGAGGGAGGGAAAAAGGGUGGAAAAGUCGAGCACAAAAAAAGGAGCCCAAGUGUAGUUCGAAAAAAAAAGAAGUAAUACAACAGAGGAUUGAGCAUCA
2. chr6:38652254:38652255:-_ENSG00000124767_ENST00000373365|hu_hu|hu_hu_hu_mus_False|58_98 (ssRNA) RNA: GGGAGUUCUACAGUCCGACGAUCCGAGAACUUCAUAAUGGGAAAAUCAAGCUUCUGCAGGAGGGUCAGUCCAAGAACUCUAGUAUAAAAAUCCAGGGACUUCUUAGGAUCCUUAAUUCUUAGCAUCGUUUGCUGCAGUAGAAACAACAGAGGAUUGAGCAUCA
3. chr20:21346065:21346066:+_ENSG00000088930_ENST00000377191|hu_hu|FALSE|FALSE (ssRNA) RNA: GGGAGUUCUACAGUCCGACGAUCUCCUGGAAGCAUUACAGCUUUAAAAAUGUAAUCUUCAGCAAACUGUGGGUCUUUAAAAUUAAUACUGACUACAGUGUUCUGUGUCAGAUCCCUUAACAUAGGAACAGGAGAACAUACUAUCAACAGAGGAUUGAGCAUCA
4. chr11:46405157:46405158:+_ENSG00000110492_ENST00000395566|hu_hu|hu_hu_hu_mus_False|1_98 (ssRNA) RNA: GGGAGUUCUACAGUCCGACGAUCCCCUCCCCACUUUGGCUGGGGAGUGUGGGCGUGAGAGGACAGGCGUGAUUGACAGAGCUGACAGGAAGACAAAAGGCACUGGUGGGUUAUAUCUUGGGCCUGUGGGAGAGGAGGCGUGGGCAACAGAGGAUUGAGCAUCA
5. chr7:54825262:54825263:-_ENSG00000132432_ENST00000352861|hu_hu|motif|central (ssRNA) RNA: GGGAGUUCUACAGUCCGACGAUCCCGACUUGGCUCAACAAACUGCAUUACCUGAUCCAUGACUGCCUACCCAACCGACACCGGAAAUGCCAGGGACACGUAGCACUGGAGCUUGCUGAUGGAGGCCCACCGGAACCGGAAUCCCAACAGAGGAUUGAGCAUCA
6. chr19:7991675:7991676:-_ENSG00000104980_ENST00000595831|hu_hu|motif|central (ssRNA) RNA: GGGAGUUCUACAGUCCGACGAUCCCAAAUCUCAGGCUUAUGCACAAGAUGGAAGAGCACUGUUAAAAUUAAAAAAUGGACCGGAAGUGGCUUGGCUGACGUGGCUAGCGGGCCACUGAGCCGCGGGUCCCGGGUCCCACCCUGCAACAGAGGAUUGAGCAUCA

1: 4.29; 2: 1.47; 3: 1.24; 4: 2.22; 5: 1.13; 6: 3.81

Output measured binding signal for this item: chr1:220276048:220276049:+_ENSG00000067704_ENST00000302637|hu_hu|hu_hu_hu_mus_True|1_38 (ssRNA) RNA: GGGAGUUCUACAGUCCGACGAUCGCAAAUUGCCUGGUUGGCGGGAAUUGUCCAAGGCUGGGUGGUCCAAACUAAAACGCUAACAGGGGAUGAGGCAUCUAUAAGAGACUCCAACUUCGGAGGAGGUCUCAGGAGGGGAAAUUUCAACAGAGGAUUGAGCAUCA 3.48
